system: Candida albicans; assay: Anti-adherence activity against Candida albicans serotype B assessed as displacement of adhered yeast cells on BECs at 13.8 mM incubated for 90 mins after preincubation of yeast cells with BECs by crystal violet staning based microscopic method relative to PBS control; format: functional, organism-based
Label 1 for high-side inhibition (at or above 40%) and -1 for low-side inhibition (below it).

| compound | class_name |
| --- | --- |
| O=C1[C@@H]2[C@H](C(=O)N1Cc1cn([C@@H]3O[C@H](CO)[C@H](O)[C@H](O)[C@H]3O)nn1)[C@@H]1C=C[C@H]2C1 | -1 |

(Q) Can `O=C(NCc1cn([C@@H]2O[C@H](CO)[C@H](O)[C@H](O)[C@H]2O)nn1)[C@@H]1[C@H](C(=O)NCc2cn([C@@H]3O[C@H](CO)[C@H](O)[C@H](O)[C@H]3O)nn2)[C@@H]2C=C[C@H]1C2` be said to have inhibition at or above 40%?
(A) 1

(Q) Note, next up: `O=C(NCc1cn([C@@H]2O[C@H](CO)[C@H](O)[C@H](O)[C@H]2O)nn1)[C@H]1[C@H](C(=O)NCc2cn([C@@H]3O[C@H](CO)[C@H](O)[C@H](O)[C@H]3O)nn2)[C@H]2C=C[C@@H]1C2`
(A) -1

(Q) Note, next up: `O=c1c(NCc2cn(CCO[C@@H]3O[C@H](CO)[C@H](O)[C@H](O)[C@H]3O)nn2)c(NCc2cn(CCO[C@@H]3O[C@H](CO)[C@H](O)[C@H](O)[C@H]3O)nn2)c1=O`
(A) -1

(Q) Note, next up: `CCC(=O)Nc1cc(C(=O)NCc2cn([C@@H]3O[C@H](CO)[C@H](O)[C@H](O)[C@H]3O)nn2)cc(C(=O)NCc2cn([C@@H]3O[C@H](CO)[C@H](O)[C@H](O)[C@H]3O)nn2)c1`
(A) 1
